system: E. histolytica HM1:IMSS trophozoites; assay: Trophozoite viability MLC determination (ameba assay); format: cell-based, Entamoeba histolytica; conditions: 3 days treatment, 3 days proliferation without drug
METRIC NAME: MLC E. histolytica HM:IMSS (nM)
Give bare numbers, in nM.

CO[C@@H]1[C@H](OC(=O)Nc2ccc(C(=O)O)cc2)CC[C@]2(CO2)[C@H]1[C@@]1(C)O[C@@H]1CC=C(C)C :: 31.3
COC1C(OC(=O)NC(=O)CN2CCOCC2)CCC2(CO2)C1C1(C)OC1CC=C(C)C (stereo not shown) :: 3.9

The following molecules each have a reported value; give each one's MLC E. histolytica HM:IMSS.
1. CCOC(=O)Cc1ccc(NC(=O)OC2CCC3(CO3)C(C3(C)OC3CC=C(C)C)C2OC)cc1 (stereo not shown)
2. CO[C@@H]1[C@H](OC(=O)/C=C/C=C/C=C/C=C/C(=O)O)CC[C@]2(CO2)[C@H]1[C@@]1(C)O[C@@H]1CC=C(C)C [Fumagillin, reference compound]
3. COC1C(OC(=O)N2CCC(O)CC2)CCC2(CO2)C1C1(C)OC1CC=C(C)C (stereo not shown)
4. COC1C(OC(=O)NC(=O)CN2CCC(O)CC2)CCC2(CO2)C1C1(C)OC1CC=C(C)C (stereo not shown)

1: 125; 2: 78; 3: 3.9; 4: 7.8

* * *

Please respond with reported pIC50 for every item in the list.
tested on: G. lamblia GS trophozoites; assay: Trophozoite growth inhibition, ATP content (ATPlite) assay; type: cell-based, Giardia lamblia; settings: Giardia duodenalis; trophozoite growth, 72 h, ATP content; read-out: Mean [IC50 ± SE(IC50)] G. lamblia GS
Answers are plain numbers, as −log10 of the molar value.

Solved entries (count: 3):
COC1C(OC(=O)N2CCCCC2)CCC2(CO2)C1C1(C)OC1CC=C(C)C (centres unmarked) :: 8.54
COC1C(OC(=O)NC(=O)CN2CCN(C)CC2)CCC2(CO2)C1C1(C)OC1CC=C(C)C (centres unmarked) :: 7.91
COC1C(OC(=O)NC(=O)CN2CCC(O)CC2)CCC2(CO2)C1C1(C)OC1CC=C(C)C (centres unmarked) :: 8.34

The following compounds each have a reported value; give each one's pIC50.
1. COC1C(OC(=O)NC(=O)CN2CCN(CCO)CC2)CCC2(CO2)C1C1(C)OC1CC=C(C)C (centres unmarked)
2. COC1C(OC(=O)NC(=O)CN2CCOCC2)CCC2(CO2)C1C1(C)OC1CC=C(C)C (centres unmarked)
3. COC1C(OC(=O)N2CCC(O)CC2)CCC2(CO2)C1C1(C)OC1CC=C(C)C (centres unmarked)
4. CCOC(=O)Cc1ccc(NC(=O)OC2CCC3(CO3)C(C3(C)OC3CC=C(C)C)C2OC)cc1 (centres unmarked)

[7.43, 8.82, 8.92, 8.51]

* * *

Experiment: Single-dose acute toxicity (MTD) and histopathology
Conditions: female, C57BL/6, mouse, in vivo, po
Procedure: The tissues of three surviving mice were analyzed along with the tissues of three animals treated with the vehicle alone. […] Based on these findings, the maximum tolerated dose (MTD) value was determined to be 1,500 mg/kg. The maximum tolerated dose (MTD) determination was performed using 8- to 10-week-old C57BL/6 female mice in five groups of 6 animals each. The mice were acclimated to the study room for a week. […]
METRIC NAME: MTD at 5 days (mg/kg)
Numbers only, in mg/kg.

Can you share its MTD at 5 days? I mean this compound: "CO[C@@H]1[C@H](OC(=O)Nc2ccc(C(=O)O)cc2)CC[C@]2(CO2)[C@H]1[C@@]1(C)O[C@@H]1CC=C(C)C" 1500

* * *

Molecular target: human MetAP2 (Homo sapiens, UniProt P50579)
Construct: purchased Bio-Techne/R&D Systems
Sequence (P50579 whole entry): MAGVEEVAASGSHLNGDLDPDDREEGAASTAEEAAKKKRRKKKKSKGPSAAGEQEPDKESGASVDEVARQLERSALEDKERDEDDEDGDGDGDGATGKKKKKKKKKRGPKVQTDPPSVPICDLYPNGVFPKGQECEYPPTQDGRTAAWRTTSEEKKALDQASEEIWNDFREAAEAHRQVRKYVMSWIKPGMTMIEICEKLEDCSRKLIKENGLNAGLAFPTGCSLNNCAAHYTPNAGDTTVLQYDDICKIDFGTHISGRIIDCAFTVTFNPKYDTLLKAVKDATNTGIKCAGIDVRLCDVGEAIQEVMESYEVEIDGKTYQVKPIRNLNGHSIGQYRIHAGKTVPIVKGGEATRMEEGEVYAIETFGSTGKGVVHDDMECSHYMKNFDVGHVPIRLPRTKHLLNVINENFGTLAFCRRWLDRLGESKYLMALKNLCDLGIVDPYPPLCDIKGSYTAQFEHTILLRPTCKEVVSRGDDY
Assay: MetAP2 fluorescence assay
Format: biochemical
Conditions: recombinant human MetAP2, fluorescence assay; read-out: Mean ± SE IC50, inhibition of human MetAP2
From the text: Based on the available crystal structures of MetAP2 complexes, the fumagillol core binds in a crowded environment, forming exquisite electrostatic interactions. Therefore, there is little room for the core fumagillol scaffold to adopt a different mode of binding. In contrast, the R group at C-6 can vary substantially because it is mostly solvent exposed. The L groups bind in a narrow site at the active-site entrance. […]
Please respond with reported IC50 for every item in the list.
One number for each entry, in nM.

COC1C(OC(=O)NC(=O)CN2CCOCC2)CCC2(CO2)C1C1(C)OC1CC=C(C)C (centres unmarked) :: 0.67

Let us move to another entry and its IC50.
Request: IC50, test system human MetAP2 (Homo sapiens, UniProt P50579), entry CO[C@@H]1[C@H](OC(=O)/C=C/C=C/C=C/C=C/C(=O)O)CC[C@]2(CO2)[C@H]1[C@@]1(C)O[C@@H]1CC=C(C)C [Fumagillin, reference compound] 0.4

* * *

experiment: pH 3 degradation test; format: physicochemical; settings: buffer, pH 3
METRIC NAME: half-life (h)
Give bare numbers, in h.

The following compounds each have a reported value; give each one's half-life.
1. COC1C(OC(=O)NC(=O)CN2CCOCC2)CCC2(CO2)C1C1(C)OC1CC=C(C)C (centres unmarked) [Compound 3]
2. CO[C@@H]1[C@H](OC(=O)Nc2ccc(C(=O)O)cc2)CC[C@]2(CO2)[C@H]1[C@@]1(C)O[C@@H]1CC=C(C)C [Compound 9]

1: 17.2; 2: 43.2

* * *

assay: Single-dose acute toxicity (MTD) and histopathology; details: female, C57BL/6, mouse, in vivo, po
METRIC NAME: LD50 at 5 days

Can you share its LD50 at 5 days? I mean this molecule: "CO[C@@H]1[C@H](OC(=O)Nc2ccc(C(=O)O)cc2)CC[C@]2(CO2)[C@H]1[C@@]1(C)O[C@@H]1CC=C(C)C" > 2000 mg/kg

* * *

test system: E. histolytica HM1:IMSS trophozoites; assay: Trophozoite growth inhibition, ATP content (ATPlite) assay; type: cell-based; conditions: Entamoeba histolytica; trophozoite growth, 72 h, ATP content; read-out: Mean [IC50 ± SE(IC50)] E. histolytica HM1: IMSS
Please respond with reported pIC50 for every item in the list.
One number for each entry, as −log10 of the molar value.

Solved entries (count: 2):
COC1C(OC(=O)NC(=O)CN2CCN(C)CC2)CCC2(CO2)C1C1(C)OC1CC=C(C)C (stereo not shown) :: 6.93
COC1C(OC(=O)N2CCCCC2)CCC2(CO2)C1C1(C)OC1CC=C(C)C (stereo not shown) :: 8.11

Let us move to another entry and its pIC50.
Can you share its pIC50? I mean this compound: COC1C(OC(=O)NC(=O)CN2CCOCC2)CCC2(CO2)C1C1(C)OC1CC=C(C)C (stereo not shown) 8.40

* * *

assay: in vitro; conditions: human, Caco-2, pH 7.4, Mean ± SE Papp, apical to basal
Please respond with reported Papp at 120 min, 10 µM for every item in the list.
Answers are plain numbers, in nm/s.

CO[C@@H]1[C@H](OC(=O)Nc2ccc(C(=O)O)cc2)CC[C@]2(CO2)[C@H]1[C@@]1(C)O[C@@H]1CC=C(C)C :: 126

Can you share its Papp at 120 min, 10 µM? I mean this compound: COC1C(OC(=O)NC(=O)CN2CCOCC2)CCC2(CO2)C1C1(C)OC1CC=C(C)C (centres unmarked) 158

* * *

system: G. lamblia WB trophozoites; experiment: Trophozoite growth inhibition, ATP content (ATPlite) assay; format: cell-based; settings: Giardia duodenalis; trophozoite growth, 72 h, ATP content; read-out: Mean [IC50 ± SE(IC50)] G. lamblia WB
METRIC NAME: IC50 (nM)
One number for each entry, in nM.

Solved entries (count: 2):
COC1C(OC(=O)N2CCC(O)CC2)CCC2(CO2)C1C1(C)OC1CC=C(C)C (stereo not drawn) :: 2.6
CCOC(=O)Cc1ccc(NC(=O)OC2CCC3(CO3)C(C3(C)OC3CC=C(C)C)C2OC)cc1 (stereo not drawn) :: 7.4

The following compounds each have a reported value; give each one's IC50.
1. COC1C(OC(=O)Nc2ccc(CC(=O)O)cc2)CCC2(CO2)C1C1(C)OC1CC=C(C)C (stereo not drawn)
2. CO[C@@H]1[C@H](OC(=O)Nc2ccc(C(=O)O)cc2)CC[C@]2(CO2)[C@H]1[C@@]1(C)O[C@@H]1CC=C(C)C
3. COC1C(OC(=O)N2CCN(c3ccccc3)CC2)CCC2(CO2)C1C1(C)OC1CC=C(C)C (stereo not drawn)
4. COC1C(OC(=O)NC(=O)CN2CCCCC2)CCC2(CO2)C1C1(C)OC1CC=C(C)C (stereo not drawn)
5. COC1C(OC(=O)N2CCCCC2)CCC2(CO2)C1C1(C)OC1CC=C(C)C (stereo not drawn)
6. CCOC(=O)c1ccc(NC(=O)OC2CCC3(CO3)C(C3(C)OC3CC=C(C)C)C2OC)cc1 (stereo not drawn)

1: 342; 2: 6.3; 3: 251; 4: 90.9; 5: 4.9; 6: 12.5
